For each record, write down the corresponding viability at 24 h, 100 ug/mL.
EXPERIMENT: Cytotoxicity against human HepG2 cells assessed as cell viability at 100 ug/mL after 24 hrs by prestoblue assay
Type: toxicity, cell-based
CONDITION_SET: read-out: Activity
Answers are plain numbers, in %.

CCNC(=O)C1C(=O)ON(C(=O)c2ccc(N3CCOCC3)c(F)c2)C1C1CCCCC1 (centres undefined)
10
CCNC(=O)C1C(=O)ON(C(=O)c2ccc(N3CCOCC3)c(F)c2)C1C(C)C (centres undefined)
10
CCNC(=O)C1=CCN(C(=O)c2ccc(N3CCOCC3)c(F)c2)[C@H]1C(C)C
20

Let us move to another entry and its viability at 24 h, 100 ug/mL.
INPUT: Looking for the measured viability at 24 h, 100 ug/mL of `CCNC(=O)C1=CCN(C(=O)c2ccc(N3CCOCC3)c(F)c2)[C@@H]1C(C)C` , can you help?
OUTPUT: 10
